- EXPERIMENT NOTES: qHTS assay to test for compound auto fluorescence at 590 nm (red) in HEK293 cells (AID 720679); further: on the % scale 0 is the no-effect control and ±100 the full control effect
- CONDITION LABEL: red autofluorescence 540/590 nm; series mostly up to 91.3 µM
Calls of active or inactive are those of the source. The call rests on the fitted dose curve; in most records, active means well fitted curve in the direction sought with a large enough effect in the repeat runs; inconclusive means weak or mixed curves; inactive means flat fitted curve, though single readings scatter.
ATTRIBUTE MEASURED: fluorescence, % of fluorescent control

Answered examples (5):
{"COMPOUND": "CCCOc1ccc2nc(NC(=O)OC)[nH]c2c1", "VALUE": "inactive"}
{"COMPOUND": "CCN(CC)C(C)CN1c2ccccc2Sc2ccccc21 (stereo not drawn)", "VALUE": "-0.0946% [at 18.6 µM] (inactive)"}
{"COMPOUND": "Nc1nc(N)c(-c2ccccc2)s1", "VALUE": "inactive"}
{"COMPOUND": "O=C(NN1CCCC1)NS(=O)(=O)c1ccc(Cl)cc1", "VALUE": "inactive"}
{"COMPOUND": "O=C(c1ccccc1)c1ccc2n1CCC2C(=O)O (stereo not drawn)", "VALUE": "inactive"}

Ask: Please give measured fluorescence, % of fluorescent control of the following entry: "O=c1[nH]cnc2ccccc12"
Result: inactive

Ask: Please give measured fluorescence, % of fluorescent control of the following entry: "COc1ccc([C@@H]2Sc3ccccc3N(CCN(C)C)C(=O)[C@@H]2OC(C)=O)cc1"
Result: inactive

Ask: Please give measured fluorescence, % of fluorescent control of the following entry: "Nc1cnn([C@@H]2O[C@H](CO)[C@@H](O)[C@H]2O)c(=O)n1"
Result: inactive

Ask: Please give measured fluorescence, % of fluorescent control of the following entry: "ClC(Cl)(Cl)c1ccc(C(Cl)(Cl)Cl)cc1"
Result: inactive

Ask: Please give measured fluorescence, % of fluorescent control of the following entry: "CN1CCC(OC(c2ccccc2)c2ccccc2)CC1"
Result: 0.0005% [at 18.6 µM] (inactive)

Ask: Please give measured fluorescence, % of fluorescent control of the following entry: "C1=Cc2ccccc2C1"
Result: inactive

Ask: Please give measured fluorescence, % of fluorescent control of the following entry: "O=c1c2ccccc2nnn1CCl"
Result: inactive

Ask: Please give measured fluorescence, % of fluorescent control of the following entry: CCC(=O)OC(C)(C)C1CC=C(C)CC1 (stereo not drawn)
Result: inactive

----------
- SYSTEM: Cytochrome P450 2C19 (Homo sapiens)
- EXPERIMENT NOTES: Cytochrome P450 Family 2 Subfamily C Member 19 (CYP2C19) small molecule antagonists: luciferase reporter qHTS assay (AID 1671197); further: nearly all actives have a fitted effect of over 65% in size
- CONDITION LABEL: P450-Glo CYP2C19 enzyme, luciferin luminescence, 1 h; series mostly up to 115 µM
Inconclusive results are not listed. Active and inactive are the calls of the source. Calls follow the shape of the dose curve; as a rule, active = well fitted inhibition curve with a large enough effect in the repeat runs; inconclusive = weak or mixed curves; inactive = no such curve, though single readings can be large or run the other way.
Result category, one only: YES for active, NO for inactive

Ask: For "CCCCOC(=O)/C=C\C(=O)OCCCC" , which call appears in the assay record?
Result: YES

Ask: For "O=C(Cl)c1c(Cl)cccc1Cl" , which call appears in the assay record?
Result: YES

Ask: For "CC(C)(C)c1cc(CCC(=O)OCC(COC(=O)CCc2cc(C(C)(C)C)c(O)c(C(C)(C)C)c2)(COC(=O)CCc2cc(C(C)(C)C)c(O)c(C(C)(C)C)c2)COC(=O)CCc2cc(C(C)(C)C)c(O)c(C(C)(C)C)c2)cc(C(C)(C)C)c1O" , which call appears in the assay record?
Result: YES

Ask: For "Cc1cccc(OCCOc2cccc(C)c2)c1" , which call appears in the assay record?
Result: YES

Ask: For "O=C1c2cccc(O)c2C(=O)c2c(O)cc(CO)cc21" , which call appears in the assay record?
Result: NO

Ask: For Cn1c(=O)c2c(ncn2CC(O)CO)n(C)c1=O (stereo unspecified) , which call appears in the assay record?
Result: NO

Ask: For "CC(=O)NCCCS(=O)(=O)O" , which call appears in the assay record?
Result: NO

Ask: For "O=C1Nc2cc(Cl)ccc2Oc2ccccc21" , which call appears in the assay record?
Result: YES

Ask: For "CC1(C)[C@H]2CC[C@]1(C)[C@H](O)C2" , which call appears in the assay record?
Result: NO

Ask: For "c1ccc(CNCc2ccccc2)cc1" , which call appears in the assay record?
Result: YES

Ask: For "N#Cc1cc2ccccc2c2ccccc12" , which call appears in the assay record?
Result: YES

----------
- EXPERIMENT NOTES: qHTS RealTime-Glo MT Cell Viability Assay in HepG2 cells - 8 hour (AID 1224873); further: on the % scale 0 is the no-effect control and ±100 the full control effect; nearly all actives have a fitted effect of over 55% in size
- CONDITION LABEL: RealTime-Glo luminescence; series mostly up to 76.8 µM
Records with an inconclusive call do not appear. The source made the active and inactive calls. The call rests on the fitted dose curve; in most records, active means well fitted cell-killing curve with a large enough effect in the repeat runs; inconclusive means weak or mixed curves; inactive means flat fitted curve, though single readings scatter.
ATTRIBUTE MEASURED: viability change, negative = cytotoxic

Answered examples (10):
{"COMPOUND": "CC(C)c1cccc(C(C)C)c1NC(=O)NS(=O)(=O)c1cc(C(C)(C)O)co1", "viability change, negative = cytotoxic": "inactive"}
{"COMPOUND": "CCN(CC)CCNC(C(=O)OCCC(C)C)c1ccccc1 (centres undefined)", "viability change, negative = cytotoxic": "inactive"}
{"COMPOUND": "CCCCCCCCCCCCCCCC(=O)OC/C=C(C)/C=C/C=C(C)/C=C/C1=C(C)CCCC1(C)C", "viability change, negative = cytotoxic": "inactive"}
{"COMPOUND": "N#CCCNCCC#N", "viability change, negative = cytotoxic": "inactive"}
{"COMPOUND": "C=CC[N+]1([C@H]2C[C@H]3[C@@H]4CC[C@H]5C[C@H](OC(C)=O)[C@@H](N6CCCCC6)C[C@]5(C)[C@H]4CC[C@]3(C)[C@H]2OC(=O)CC)CCCCC1", "viability change, negative = cytotoxic": "inactive"}
{"COMPOUND": "Cn1c(N)nc2nc[nH]c2c1=O", "viability change, negative = cytotoxic": "inactive"}
{"COMPOUND": "O=[N+]([O-])c1cc[n+]([O-])cc1", "viability change, negative = cytotoxic": "inactive"}
{"COMPOUND": "O=S1(=O)c2cccc3cccc(c23)N1CCCN1CCN(c2ccc(F)cc2)CC1", "viability change, negative = cytotoxic": "inactive"}
{"COMPOUND": "N#Cc1cc2ccccc2c2ccccc12", "viability change, negative = cytotoxic": "inactive"}
{"COMPOUND": "N#Cc1c(F)cccc1F", "viability change, negative = cytotoxic": "inactive"}

Ask: Please give measured viability change, negative = cytotoxic of the following entry: CC(C)=CCCC(C)CC=O (centres undefined)
Result: inactive

Ask: Please give measured viability change, negative = cytotoxic of the following entry: "NC[C@H]1O[C@H](O[C@H]2[C@H](O)[C@@H](O[C@H]3O[C@H](CO)[C@@H](O)[C@H](N)[C@H]3O)[C@H](N)C[C@@H]2N)[C@H](O)[C@@H](O)[C@@H]1O"
Result: 5.97% [at 6.97 µM] (inactive)

----------
- EXPERIMENT NOTES: qHTS RealTime-Glo MT Cell Viability Assay in HepG2 cells - 16 hour (AID 1224885); further: on the % scale 0 is the no-effect control and ±100 the full control effect; nearly all actives have a fitted effect of over 50% in size
- CONDITION LABEL: RealTime-Glo luminescence; series mostly up to 76.8 µM
Inconclusive results are not listed. Activity calls are given as the source filed them. The call rests on the fitted dose curve; in most records, active means well fitted cell-killing curve with a large enough effect in the repeat runs; inconclusive means weak or mixed curves; inactive means flat fitted curve, though single readings scatter.
ATTRIBUTE MEASURED: activity change, negative = cytotoxic

Answered examples (4):
{"COMPOUND": "CCN(CC)CCNC(C(=O)OCCC(C)C)c1ccccc1 (centres undefined)", "ATTRIBUTE MEASURED": "activity change, negative = cytotoxic", "VALUE": "inactive"}
{"COMPOUND": "CC(=O)c1ccc2c(c1)[C@H](NC(=O)c1ccc(F)cc1)[C@@H](O)C(C)(C)O2", "ATTRIBUTE MEASURED": "activity change, negative = cytotoxic", "VALUE": "inactive"}
{"COMPOUND": "O=S1(=O)N=C(O)c2ccccc21", "ATTRIBUTE MEASURED": "activity change, negative = cytotoxic", "VALUE": "inactive"}
{"COMPOUND": "CCC(=O)OC(C)(C)C1CC=C(C)CC1 (centres undefined)", "ATTRIBUTE MEASURED": "activity change, negative = cytotoxic", "VALUE": "inactive"}

Ask: Please give measured activity change, negative = cytotoxic of the following entry: "Oc1ccc(O)c2c(O)cccc12"
Result: inactive

Ask: Please give measured activity change, negative = cytotoxic of the following entry: "CN(C)C/C=C(/c1ccc(Br)cc1)c1cccnc1"
Result: inactive

Ask: Please give measured activity change, negative = cytotoxic of the following entry: "CCCCCOC(=O)COc1cc(N2C(=O)C3=C(CCCC3)C2=O)c(F)cc1Cl"
Result: inactive

Ask: Please give measured activity change, negative = cytotoxic of the following entry: "Cc1cccc(OCCOc2cccc(C)c2)c1"
Result: inactive

Ask: Please give measured activity change, negative = cytotoxic of the following entry: "N#CCc1cccc(C(F)(F)F)c1"
Result: inactive
